Tested on: SK-MEL-5
Assay Comment: NCI tumour cell line growth inhibition, 48 h
The source made the active and inactive calls. Rule as the data show it: active = GI50 up to about 1.1 µM and inactive = higher.
The following compounds are shown together with reported GI50 values.

Example results:
COC1OC(CO)C(O)C(O)C1Br (stereo not given); > 100 µM (inactive)
O=C1C2=C(c3ccccc31)C(c1ccccc1Cl)N1C(=O)CSC1=N2 (stereo not given); > 100 µM (inactive)
O=C(OCC(Cl)(Cl)Cl)N1CC[C@@H](C2CCCCC2)C1; 18.1 µM (inactive)
C=C[C@H]1CC[C@H]2[C@@H]3CC=C4C[C@@H](OC5OCC(O)C(O)C5O)CC[C@]4(C)[C@H]3CC[C@]12C (stereo not given in full); 18.2 µM (inactive)

Could you now look at the following compound, please?
Task item: So what does the record say about GI50 for CC(C)(NC1=NCCO1)c1ccccc1 ?
Reply: > 100 µM (inactive)
